Numbers sourced from patent US20040248877A1.

Test system: HL60, human leukemic cells expressing high Bcl-2 and low Bcl-XL levels
Assay: Acute cytotoxicity (apoptotic activity), Alamar Blue viability
Type: cell-based
Parameter: CC50 (µM)

[
  {
    "Structure": "[O-][N+]1=[N+]([O-])c2ccc(OC(F)F)cc2CCc2cc(OC(F)F)ccc21",
    "Assayed Target": "HL60, human leukemic cells expressing high Bcl-2 and low Bcl-XL levels",
    "Assay Result": 18.5
  }
]
